pIC50: −log10 of the molar value.
Below are pIC50 values for ERK1 (Homo sapiens, UniProt P27361) collected from several publications.
I would appreciate it if you labelled entries T when pIC50 is 8 or higher, otherwise F.

1) Cn1nccc1Nc1nccc(-c2cc3n(c2)C(=O)N([C@H](CO)c2ccc(F)c(Cl)c2)C3)n1	F
2) Cn1nccc1Nc1nccc(-c2cc3n(c2)C(=O)N([C@H](CO)c2ccc(Cl)cc2)C3)n1	F
3) CNC[C@@H](NC(=O)c1nc2cc3c(-c4ccncc4)n[nH]c3cc2[nH]1)c1ccccc1	T
4) C[C@@H](NC(=O)c1nc2cc3c(-c4ccncc4)n[nH]c3cc2[nH]1)c1cccc(Br)c1	T
5) COc1cccc([C@@H](C)NC(=O)c2nc3cc4c(-c5ccncc5)n[nH]c4cc3[nH]2)c1	T

Prompt line: API: above_or_equal(metric=pIC50, cutoff=8) for item CCSc1ccncc1NC(=O)c1ccnc2[nH]c(-c3ccc(F)cc3)nc12
Response line: F

Prompt line: API: above_or_equal(metric=pIC50, cutoff=8) for item CC(NC(=O)c1nc2cc3c(-c4ccncc4)n[nH]c3cc2[nH]1)c1cnccn1 (centres unmarked)
Response line: T
